Value source: ChEMBL document CHEMBL4715808

method_description: Protein binding in human plasma assessed as unbound fraction
Assay type: ADME, cell-free
measurement_type: fraction unbound

chemical_smiles	result
Cl.N[C@]1(C(=O)O)[C@@H]2[C@@H](C(=O)O)[C@@H]2[C@H](O)[C@H]1CSc1ccc(F)c(F)c1	> 0.6

* * *

system: Metabotropic glutamate receptor 3 (Homo sapiens, UniProt Q14832)
Sequence (Q14832 whole entry): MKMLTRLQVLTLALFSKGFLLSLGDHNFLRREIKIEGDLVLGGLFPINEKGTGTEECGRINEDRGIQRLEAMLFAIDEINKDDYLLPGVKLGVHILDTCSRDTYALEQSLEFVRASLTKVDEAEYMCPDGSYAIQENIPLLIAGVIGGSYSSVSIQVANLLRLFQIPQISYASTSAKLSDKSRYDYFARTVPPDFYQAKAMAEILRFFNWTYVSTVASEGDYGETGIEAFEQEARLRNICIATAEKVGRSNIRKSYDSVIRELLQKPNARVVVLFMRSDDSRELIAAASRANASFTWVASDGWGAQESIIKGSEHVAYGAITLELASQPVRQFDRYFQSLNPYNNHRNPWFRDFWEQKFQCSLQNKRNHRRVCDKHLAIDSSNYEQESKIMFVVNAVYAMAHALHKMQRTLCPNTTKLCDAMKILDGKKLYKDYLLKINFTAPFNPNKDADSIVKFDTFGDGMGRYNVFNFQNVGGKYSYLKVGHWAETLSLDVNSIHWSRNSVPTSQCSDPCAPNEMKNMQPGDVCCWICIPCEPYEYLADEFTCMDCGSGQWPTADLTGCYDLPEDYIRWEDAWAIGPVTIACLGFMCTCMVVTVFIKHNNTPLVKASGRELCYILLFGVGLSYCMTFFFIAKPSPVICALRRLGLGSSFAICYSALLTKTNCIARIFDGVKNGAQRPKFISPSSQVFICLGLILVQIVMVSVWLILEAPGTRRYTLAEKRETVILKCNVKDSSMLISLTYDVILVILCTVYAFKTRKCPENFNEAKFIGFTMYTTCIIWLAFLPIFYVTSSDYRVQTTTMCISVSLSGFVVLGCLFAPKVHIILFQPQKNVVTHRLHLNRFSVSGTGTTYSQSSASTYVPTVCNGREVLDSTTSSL
method_description: Antagonist activity at human recombinant mGlu3 receptor stably expressed in golden hamster AV12 cells co-expressing rat EAAT1 assessed as reduction in DCG IV-induced inhibition of forskolin-stimulated cAMP accumulation preincubated for 20 mins followed by incubation with cAMP-d2 conjugate and anti-cAMP cryptate for 1 hr by HTRF assay
Assay type: functional, cell-based
pIC50: −log10 of the molar value.
Assign rule met whenever pIC50 does not fall below 7; assign rule not met whenever it does.

chemical_smiles	assigned_label
N[C@]1(C(=O)O)[C@@H]2[C@@H](C(=O)O)[C@@H]2[C@@H](O)[C@@H]1CSc1ccccc1	rule not met
N[C@]1(C(=O)O)[C@@H]2[C@@H](C(=O)O)[C@@H]2[C@@H](O)[C@H]1CSc1ccccc1	rule not met
N[C@]1(C(=O)O)[C@@H]2[C@@H](C(=O)O)[C@@H]2[C@H](O)[C@H]1CSc1ccc(F)cc1	rule met
N[C@]1(C(=O)O)[C@@H]2[C@@H](C(=O)O)[C@@H]2[C@H](O)[C@H]1CSc1ccccc1F	rule not met
N[C@]1(C(=O)O)[C@@H]2[C@@H](C(=O)O)[C@@H]2[C@H](O)[C@H]1CSc1ccc(Cl)c(Cl)c1	rule met
